target: Sigma non-opioid intracellular receptor 1 (Cavia porcellus); test: Displacement of [3H](+)-pentazocine from sigma 1 receptor in guinea pig brain membrane homogenates after 90 mins by liquid scintillation counting
Sequence (Q60492 whole entry): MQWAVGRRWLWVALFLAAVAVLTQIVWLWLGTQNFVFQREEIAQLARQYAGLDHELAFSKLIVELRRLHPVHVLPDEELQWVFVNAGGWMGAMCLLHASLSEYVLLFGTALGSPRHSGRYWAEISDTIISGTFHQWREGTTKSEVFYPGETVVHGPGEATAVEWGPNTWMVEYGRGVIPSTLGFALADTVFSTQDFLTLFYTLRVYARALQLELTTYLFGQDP
Threshold 100 nM. Ki below it: yes. Ki at it or above: no.

molecule=Nc1cccc2c1C[C@@H](N1CCC(C(=O)c3ccc(F)cc3)CC1)[C@H](O)C2 tgt="Sigma non-opioid intracellular receptor 1 (Cavia porcellus)" classassignment=no
molecule="CCOC(=O)C1CCN([C@@H]2Cc3ccccc3C[C@H]2O)CC1 (relative stereo)" tgt="Sigma non-opioid intracellular receptor 1 (Cavia porcellus)" classassignment=no
molecule="O=C(C1CCN([C@@H]2Cc3ccccc3C[C@H]2O)CC1)N1CCC(Cc2ccccc2)CC1 (relative stereo)" tgt="Sigma non-opioid intracellular receptor 1 (Cavia porcellus)" classassignment=yes

stdin: API: query returns whether the molecule falls strictly under 100 nM in Ki. Query: Nc1cccc2c1C[C@@H](O)[C@H](N1CCC(C(=O)c3ccc(Br)s3)CC1)C2
stdout: no

stdin: Further, for O=C(c1ccc(Br)s1)C1CCN([C@@H]2Cc3ccccc3C[C@H]2O)CC1 (relative stereo) ?
stdout: no

stdin: Further, for O=C(c1ccc(Br)cc1)C1CCN([C@@H]2CCCC[C@H]2O)CC1 ?
stdout: yes

stdin: Further, for O=C(c1ccc(F)cc1)C1CCN([C@@H]2CCCC[C@H]2O)CC1 ?
stdout: no

stdin: Further, for Nc1cccc2c1C[C@@H](N1CCC(C(=O)c3cccs3)CC1)[C@H](O)C2 ?
stdout: no

stdin: Further, for O=C(C1CCN([C@@H]2Cc3ccccc3C[C@H]2O)CC1)N1CCC(c2ccccc2)CC1 (relative stereo) ?
stdout: yes

stdin: Further, for Nc1cccc2c1C[C@@H](N1CCC(C(=O)c3ccc(Br)cc3)CC1)[C@H](O)C2 ?
stdout: no

stdin: Further, for O=C(c1ccc(Br)s1)C1CCN([C@@H]2CCCC[C@H]2O)CC1 ?
stdout: yes

stdin: Further, for Nc1cccc2c1C[C@@H](O)[C@H](N1CCC(C(=O)c3ccc(F)cc3)CC1)C2 ?
stdout: no

stdin: Further, for O=C(c1ccc(I)s1)C1CCN([C@@H]2CCCC[C@H]2O)CC1 ?
stdout: yes

stdin: Further, for Nc1cccc2c1C[C@@H](N1CCC(C(=O)c3ccc(Br)s3)CC1)[C@H](O)C2 ?
stdout: no
